Where do the numbers come from? From ChEMBL document CHEMBL3763095.

Test system: Escherichia coli
Test: Antibacterial activity against Escherichia coli ATCC 25922 after 16 hrs by two-fold microdillution method
Type: functional, organism-based
Activity calls are given as the source filed them. The calls are words filed in the database; no cut-off is given here.
Reported Metric: Activity

Please review the following examples before continuing.
Structure Smiles String | Result
O=C1C(=O)c2c(nc3ccc(Cl)cn23)-c2ccccc21 | inactive
COc1ccc2nc3c(n2c1)C(=O)C(=O)c1ccccc1-3 | inactive
O=C1C(=O)c2c(nc3ccccn23)-c2ccccc21 | inactive
O=C1C(=O)c2c(nc3ccc(Br)cn23)-c2ccccc21 | inactive
Cc1ccc2nc3c(n2c1)C(=O)C(=O)c1ccccc1-3 | inactive

Now examine the next entry.
QUERY: Return value of Activity for input `O=C1C(=O)c2c(nc3ccc(F)cn23)-c2ccccc21` , no commentary.
RESULT: inactive
